# System: Enterococcus faecalis
# experimental protocol: Antibacterial activity against Enterococcus faecalis 29212 by broth microdilution method
# Format: functional
MIC for assorted compounds
The reply should be a number in µg/mL, with the unit left off.

Solved cases below.
CC[C@H]1OC(=O)[C@H](C)C(=O)[C@H](C)[C@@H](O[C@@H]2O[C@H](C)C[C@H](N(C)C)[C@H]2O)[C@](C)(OC)C[C@@H](C)C(=O)[C@H](C)[C@@H]2[C@@H]1OC(=O)N2CCCCn1ccc2ccccc21 :: 0.1
CC[C@H]1OC(=O)[C@H](C)C(=O)[C@H](C)[C@@H](O[C@@H]2O[C@H](C)C[C@H](N(C)C)[C@H]2O)[C@](C)(OC)C[C@@H](C)C(=O)[C@H](C)[C@@H]2[C@@H]1OC(=O)N2CCCCn1cnc(-c2ccccc2)c1 :: 0.1

input: I am curious: what MIC value has been reported for "CC[C@H]1OC(=O)[C@H](C)C(=O)[C@H](C)[C@@H](O[C@@H]2O[C@H](C)C[C@H](N(C)C)[C@H]2O)[C@](C)(OC)C[C@@H](C)C(=O)[C@H](C)[C@@H]2[C@@H]1OC(=O)N2CCCCc1ncc(-c2ccccc2)s1" ?
output: 0.4

Data origin: ChEMBL document CHEMBL1148671
